test system: PBMC; details: 12.5 µM
# label = t if Average (percentage cell inhibition), Mastoparan PBMC >= 10% else f

query: Does the molecule CC[C@H](C)[C@H](N)C(=O)N[C@@H](CC(N)=O)C(=O)N[C@@H](CC(C)C)C(=O)N[C@@H](CC(N)=O)C(=O)N[C@@H](C)C(=O)N[C@@H](CC(C)C)C(=O)N[C@@H](C)C(=O)N[C@@H](C)C(=O)N[C@@H](CC(C)C)C(=O)N[C@@H](C)C(=O)N[C@@H](CCCCN)C(=O)N[C@@H](CCCCN)C(=O)N[C@H](C(=O)N[C@@H](CC(C)C)C(N)=O)[C@@H](C)CC [N4] have recorded Average (percentage cell inhibition), Mastoparan PBMC that is 10% or more?
result: t

query: Does the molecule CC[C@H](C)[C@H](N)C(=O)N[C@@H](CC(N)=O)C(=O)N[C@@H](CC(C)C)C(=O)N[C@@H](CCCCN)C(=O)N[C@@H](C)C(=O)N[C@@H](CC(C)C)C(=O)N[C@@H](C)C(=O)N[C@@H](C)C(=O)N[C@H](C(=O)N[C@@H](C)C(=O)N[C@@H](CCCCN)C(=O)N[C@@H](CCCCN)C(=O)N[C@H](C(=O)N[C@@H](CC(C)C)C(N)=O)[C@@H](C)CC)[C@@H](C)CC [I9] have recorded Average (percentage cell inhibition), Mastoparan PBMC that is 10% or more?
result: t

query: Does the molecule CC[C@H](C)[C@H](N)C(=O)N[C@@H](CC(N)=O)C(=O)N[C@@H](CC(C)C)C(=O)N[C@@H](CCCCN)C(=O)N[C@@H](C)C(=O)N[C@@H](CC(C)C)C(=O)N[C@@H](C)C(=O)N[C@@H](C)C(=O)N[C@@H](CC(C)C)C(=O)N[C@@H](C)C(=O)N[C@@H](CCCCN)C(=O)N[C@@H](CCCCN)C(=O)N[C@@H](Cc1c[nH]cn1)C(=O)N[C@@H](CC(C)C)C(N)=O [H13] have recorded Average (percentage cell inhibition), Mastoparan PBMC that is 10% or more?
result: f

query: Does the molecule CC[C@H](C)[C@H](N)C(=O)N[C@@H](CC(N)=O)C(=O)N[C@@H](CO)C(=O)N[C@@H](CCCCN)C(=O)N[C@@H](C)C(=O)N[C@@H](CC(C)C)C(=O)N[C@@H](C)C(=O)N[C@@H](C)C(=O)N[C@@H](CC(C)C)C(=O)N[C@@H](C)C(=O)N[C@@H](CCCCN)C(=O)N[C@@H](CCCCN)C(=O)N[C@H](C(=O)N[C@@H](CC(C)C)C(N)=O)[C@@H](C)CC [S3] have recorded Average (percentage cell inhibition), Mastoparan PBMC that is 10% or more?
result: f

query: Does the molecule CC[C@H](C)[C@H](NC(=O)[C@H](CCCCN)NC(=O)[C@H](CCCCN)NC(=O)[C@H](C)NC(=O)[C@H](CC(C)C)NC(=O)[C@H](C)NC(=O)[C@H](C)NC(=O)[C@H](CC(C)C)NC(=O)[C@H](C)NC(=O)[C@H](CCCCN)NC(=O)[C@H](CC(C)C)NC(=O)[C@H](CC(N)=O)NC(=O)[C@@H](N)C(C)C)C(=O)N[C@@H](CC(C)C)C(N)=O [V1] have recorded Average (percentage cell inhibition), Mastoparan PBMC that is 10% or more?
result: t

query: Does the molecule CC[C@H](C)[C@H](N)C(=O)N[C@@H](CC(N)=O)C(=O)N[C@@H](CC(C)C)C(=O)N[C@@H](CCCCN)C(=O)N[C@@H](C)C(=O)N[C@@H](CC(C)C)C(=O)N[C@@H](C)C(=O)N[C@@H](C)C(=O)N[C@@H](CC(C)C)C(=O)N[C@@H](C)C(=O)N[C@@H](CCCCN)C(=O)N[C@@H](CCCCN)C(=O)N[C@H](C(=O)N[C@H](C(N)=O)[C@@H](C)O)[C@@H](C)CC [T14] have recorded Average (percentage cell inhibition), Mastoparan PBMC that is 10% or more?
result: f

query: Does the molecule CC[C@H](C)[C@H](N)C(=O)N[C@@H](CC(N)=O)C(=O)N[C@@H](CC(C)C)C(=O)N[C@@H](CCCCN)C(=O)N[C@@H](C)C(=O)N[C@@H](CC(C)C)C(=O)N[C@@H](C)C(=O)N[C@@H](C)C(=O)N[C@@H](CC(C)C)C(=O)N[C@@H](C)C(=O)N[C@@H](CCCCN)C(=O)N[C@H](C(=O)N[C@H](C(=O)N[C@@H](CC(C)C)C(N)=O)[C@@H](C)CC)[C@@H](C)O [T12] have recorded Average (percentage cell inhibition), Mastoparan PBMC that is 10% or more?
result: t

query: Does the molecule CC[C@H](C)[C@H](N)C(=O)N[C@@H](CC(N)=O)C(=O)N[C@@H](CC(C)C)C(=O)N[C@@H](CCCCN)C(=O)N[C@@H](CCC(=O)O)C(=O)N[C@@H](CC(C)C)C(=O)N[C@@H](C)C(=O)N[C@@H](C)C(=O)N[C@@H](CC(C)C)C(=O)N[C@@H](C)C(=O)N[C@@H](CCCCN)C(=O)N[C@@H](CCCCN)C(=O)N[C@H](C(=O)N[C@@H](CC(C)C)C(N)=O)[C@@H](C)CC [E5] have recorded Average (percentage cell inhibition), Mastoparan PBMC that is 10% or more?
result: f

query: Does the molecule CC[C@H](C)[C@H](N)C(=O)N[C@@H](CC(N)=O)C(=O)N[C@@H](CC(C)C)C(=O)N[C@@H](CCCCN)C(=O)N[C@H](C(=O)N[C@@H](CC(C)C)C(=O)N[C@@H](C)C(=O)N[C@@H](C)C(=O)N[C@@H](CC(C)C)C(=O)N[C@@H](C)C(=O)N[C@@H](CCCCN)C(=O)N[C@@H](CCCCN)C(=O)N[C@H](C(=O)N[C@@H](CC(C)C)C(N)=O)[C@@H](C)CC)[C@@H](C)O [T5] have recorded Average (percentage cell inhibition), Mastoparan PBMC that is 10% or more?
result: t

query: Does the molecule CC[C@H](C)[C@H](N)C(=O)N[C@@H](CC(N)=O)C(=O)N[C@@H](CC(C)C)C(=O)N[C@@H](CCCCN)C(=O)N[C@@H](C)C(=O)N[C@@H](CC(C)C)C(=O)N[C@@H](C)C(=O)N[C@@H](C)C(=O)N[C@@H](CC(C)C)C(=O)N[C@@H](C)C(=O)N[C@@H](CCCCN)C(=O)N[C@@H](CCCCN)C(=O)N[C@@H](Cc1ccc(O)cc1)C(=O)N[C@@H](CC(C)C)C(N)=O [Y13] have recorded Average (percentage cell inhibition), Mastoparan PBMC that is 10% or more?
result: t

query: Does the molecule CC[C@H](C)[C@H](N)C(=O)N[C@@H](CC(N)=O)C(=O)N[C@@H](CC(C)C)C(=O)N[C@@H](CCCCN)C(=O)N[C@@H](C)C(=O)N[C@@H](CC(C)C)C(=O)N[C@H](C(=O)N[C@@H](C)C(=O)N[C@@H](CC(C)C)C(=O)N[C@@H](C)C(=O)N[C@@H](CCCCN)C(=O)N[C@@H](CCCCN)C(=O)N[C@H](C(=O)N[C@@H](CC(C)C)C(N)=O)[C@@H](C)CC)C(C)C [V7] have recorded Average (percentage cell inhibition), Mastoparan PBMC that is 10% or more?
result: t
